Tested on: MS2 coat protein
measurement description: apparent KD of MS2 coat protein; designed switch direction (-1 OFF switch, 1 ON switch): -1; higher = weaker reporter binding
cond: Eterna round: R95; input ligand: none
apparent KD of MS2 coat protein values, listed per item

>  <sequence code>
AGUACUAACCCGAAAGUGUUAGUACAAUAAGCUUGUGAAACAUGAGGAUCACCCAUGUCCUCAUAAGCUCGUCUUAU [salish99_TOv2_r3_024] (puzzle: Sensor v3, turn-off variant 2)

>  <unit info>
nM

>  <apparent KD of MS2 coat protein>
15.3

$$$$
>  <sequence code>
AUGUGGGUACGAAGGUGUAGAUUGAGCGUACGUUCUGGAACAUGAGGAUCACCCAUGUCGCUUUUUGCUCGUCUUAU [JR_SV3TOV2_Sub035] (puzzle: Sensor v3, turn-off variant 2)

>  <unit info>
nM

>  <apparent KD of MS2 coat protein>
24.1

$$$$
>  <sequence code>
GCAUUGAGUGUGAGGAUAUGCUGGUCAUAAGAUCAGCAGAAGGCACAUGAGGAUCACCCAUGUGAAAACAAUGC [Mat - Exclusion 4 - JL Mod - D66] (puzzle: Brourd's mod of Exclusion 4)

>  <unit info>
nM

>  <apparent KD of MS2 coat protein>
19.2

$$$$
>  <sequence code>
GAAAAGGUAGGAUAUACGAAAAAAAAGGGUAGAAAAAAAACACAUGAGGAUCACCCAUGUAGAAGGACCUAAAG [salish99_ex2_r3_090] (puzzle: Exclusion 2)

>  <unit info>
nM

>  <apparent KD of MS2 coat protein>
24.6

$$$$
>  <sequence code>
GAGAAGGUAGGAUAUACGAAUAAAAAGGGUAGAAGAAGAACACAUGAGGAUCACCCAUGUAGAAGGACCAAGAG [Mat - Exclusion 2 - Mod of my Tesla design - D22] (puzzle: Exclusion 2)

>  <unit info>
nM

>  <apparent KD of MS2 coat protein>
17.6

$$$$

---

System: MS2 coat protein
measurement description: apparent KD of MS2 coat protein; designed switch direction (-1 OFF switch, 1 ON switch): -1; higher = weaker reporter binding
cond: input ligand: none
Classify as follows. Reported apparent KD of MS2 coat protein greater than or equal to 40 nM: 1. Reported apparent KD of MS2 coat protein below: 0.

>  <sequence code>
AAUGGUAAAGUCAGGAUAUACGUAAAUCGUACUAGGUAGAAGGGACAUGAGGAUCACCCAUGUAUGAUAGUAAA [Ex4 #31] (Eterna round: R97, puzzle: Brourd's mod of Exclusion 4)

>  <discrete label>
1

$$$$
>  <sequence code>
CCUCCGUAUUAGGAUAUCGUCCCGGAAACGGGACGAGAAGGAAUGACAUGAGGAUCACCCAUGUUAACGUGAUG [Mod of Brourd 20 - Jieux - Exclusion 6] (Eterna round: R97, puzzle: Exclusion 6)

>  <discrete label>
0

$$$$
>  <sequence code>
CCAGGGCACAAUUAAACGCCCUAACAUGAGGAUCACCCAUGUCAGGAUAUGUAGGCAAAGACCCUACAGAAGGGACAUGUCCUA [Xegeat] (Eterna round: R96, puzzle: Exclusion NG 3)

>  <discrete label>
1

$$$$
>  <sequence code>
UUGCAGUCGUCAGGAUAUAGUAUUACGGCCUUUCAUUUCUUCAUACAUGAGGAUCACCCAUGUCGCUAGAAGGGCUUCUCGCUU [salish99_ExNG2_r04_109] (Eterna round: R96, puzzle: Exclusion NG 2)

>  <discrete label>
0

$$$$

---

Test system: K4 kissing-loop RNA reporter
measurement description: apparent KD of K4 kissing-loop reporter; higher = weaker reporter binding
cond: Eterna round: R107; input ligand: arginine 13.2 mM

>  <sequence code>
AAAUAAAUCGGAGGAUAUCCUUCCCACGUCGAAGUACCGUGCUUGAUGGAGUGAUGUUCGAUCAGAGGAGAAGGCCGAUAAAUAA [Same State FMN B GF20]

>  <apparent KD of K4 kissing-loop reporter / µM>
0.732

$$$$
>  <sequence code>
UCUUGCGGCGCAGGAUAUCCGUCUGUCUCCUGCGUCAUUCUGCAGUGAUGUUGCAGGUGACGGAUAGGAGAAGGGCGAACGUACA [Diinonorce]

>  <apparent KD of K4 kissing-loop reporter / µM>
0.104

$$$$
>  <sequence code>
AAAAUAAAUAGCAGUCAUGGAGUGAUGUUCCGAGGACCGGUACGGCCGCCACUCGACCAUCAUAAGAUGGAAUGGCGAGACUGCA [#SwitchBubble 22 #K4Early]

>  <apparent KD of K4 kissing-loop reporter / µM>
0.288

$$$$

---

apparent KD of MS2 coat protein values, listed per item
Tested on: MS2 coat protein
measurement description: apparent KD of MS2 coat protein; designed switch direction (-1 OFF switch, 1 ON switch): -1; higher = weaker reporter binding
cond: input ligand: FMN 200 uM

>  <sequence code>
AAUUUACAUGAGGAUCACCCAUGUGAGGAUAUAUACAAAGAAGUGUUAUUAAGAAUGUAUAGAAGGCGCGUGAU [JR_Exc1_Sub039] (Eterna round: R97, puzzle: Exclusion 1)

>  <apparent KD of MS2 coat protein>
73.6 nM

$$$$
>  <sequence code>
AAUUUAAUUAACAAGCUUUACAUGAGGAUCACCCAUGUGAUCAUGCUCGUCUUAGGUACAGGCUUCGGCCUGUACCA [Stov1/6-B1] (Eterna round: R97, puzzle: Sensor, turn-off variant 1)

>  <apparent KD of MS2 coat protein>
49.7 nM

$$$$
>  <sequence code>
UCCCACCGAGGAUAUGACCAUCAGAACAUGAGGAUCACCCAUGUAUUUCUAUGUUCAGAGUCAGAAGGCGGUUUAU [Eternabot (L2) Solution 20] (Eterna round: R97, puzzle: Exclusion 5)

>  <apparent KD of MS2 coat protein>
190 nM

$$$$
>  <sequence code>
GCAAAAUAUCAGGAUAUGACUAGCUGCGGCUAGUCAGAAGGGAUGACAUGAGGAUCACCCAUGUGAUCUCGUGU [JR_Ex6_Sub028] (Eterna round: R97, puzzle: Exclusion 6)

>  <apparent KD of MS2 coat protein>
487 nM

$$$$
>  <sequence code>
AGAGUGCUGCGAGGAUAUACAUGAGGAUCACCCAUGUAAACCUGUGAGGCAAAGCCUCACAGGAUGUAGAAGGCGCAGUACUCA [Mat - Exclusion NG 2 - Mod of JL - D40] (Eterna round: R96, puzzle: Exclusion NG 2)

>  <apparent KD of MS2 coat protein>
20 nM

$$$$

---

Test system: K4 kissing-loop RNA reporter
measurement description: apparent KD of K4 kissing-loop reporter; higher = weaker reporter binding
cond: Eterna round: R107; input ligand: none
apparent KD of K4 kissing-loop reporter values, listed per item
quantity kind: apparent KD of K4 kissing-loop reporter (nM)

>  <sequence code>
AACUGUCAAGGACAACAUUACUGAGGUGAUACCAGCAUCGAAAGAUGCCCUUGGCAGCGCCAACUUGCAGUGAUGUUGCAAGUAA [BrourdMod 1 - Jieux - Exclusion - Theophylline A]

>  <quantitative result>
157

$$$$
>  <sequence code>
UGAUACCAGACUGAUACCAGCCAGUGAUGUUGGCUAAGCCGAAGAGGUGUCAAAGACACCGGCCCUUGGCAGCAGUCUGGUAUCU [#06 K4 Theophylline B Exclusion]

>  <quantitative result>
114

$$$$
>  <sequence code>
GUUCUCGAAACUCAGUGAUGUUGAGUUGCAGAGGAUAUCCGCACAUGGAGAAGGCUGCAGUAAUUUAAAGACUCAGCGGCGCUCC [Riare]

>  <quantitative result>
115

$$$$
>  <sequence code>
AAGUGUGUGGCGGCCGCCACUAGAAUCCAGUGAUGUUGGAGAUAUCAUGUAAAUGAUAUCCAACAUAGGACCGGGCCAUAUAGAA [Same State - Tryptophan B (Freestyle 10)]

>  <quantitative result>
92.4

$$$$
>  <sequence code>
AAUUUGUAUUUAUUCUUUAAAUGUUCAGAAGGAGCGUGAAUUAUCACAGGUAGGUCGCUGAGCUAGUGAUGUUAGCUAUACACUA [#01 K4 Arginine A Exclusion]

>  <quantitative result>
127

$$$$

---

apparent KD of K4 kissing-loop reporter values, listed per item
Tested on: K4 kissing-loop RNA reporter;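 further: bound reporter read as fluorescence of individual clusters on recovered sequencing chips by microscopy, with normalized cluster intensities fitted with a binding model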
measurement description: apparent KD of K4 kissing-loop reporter; higher = weaker reporter binding
cond: Eterna round: R107; input ligand: FMN 200 uM

>  <sequence code>
AGACUACUGAUAGGAUAUAACAUCCUAGUCGUAUACCGAAAGGUAUACGAUUUCCUUCUAGUGAUGUUAGAAGGGUCGGUAGUCA [Omei KL FMN B Exc B v11]

>  <unit info>
µM

>  <apparent KD of K4 kissing-loop reporter>
0.106

$$$$
>  <sequence code>
UGGAUAUAGUGAUGUUAUAUAGAGAUGGAUACCAGCGAAGAGAAUUGCCCUUGGCAGCCGAAAGCAGUAUCAUUAGAGAAGAAUG [#19 K4 Theophylline A Exclusion]

>  <unit info>
µM

>  <apparent KD of K4 kissing-loop reporter>
0.291

$$$$
>  <sequence code>
AAGGGCUAGGCGGCCGCCACUGGUCGUGUACACAUACAGACCAGUGAUGUUGGUAUUGUAUGCGACAGGACCGGGCCUAGCCCAA [Exclusion - Tryptophan B (Freestyle 29)]

>  <unit info>
µM

>  <apparent KD of K4 kissing-loop reporter>
0.267

$$$$
>  <sequence code>
GGCAUCCAUGGACCUAGUGAUGUUAGGUACCGAGGACCGGUACGGCCGCCACUCGGCCAUGGAUGCCGCAAUCGGAAACGAUUGC

>  <unit info>
µM

>  <apparent KD of K4 kissing-loop reporter>
0.406

$$$$
>  <sequence code>
UGGAUAUAGUGAUGUUAUAUAGAGAUGGAUACCAGCUGAGAGAAUAGCCCUUGGCAGCCGAAAGAAGUAUCAUUAGAGAAGAAUG [ExTheophyl.Aj]

>  <unit info>
µM

>  <apparent KD of K4 kissing-loop reporter>
0.248

$$$$
>  <sequence code>
UUUCUACCGGGAAGGAGCGUGAAUGAUAAUGGAUAUAGUGAUGUUAUAUAUACGAACGAAUCGCAGGUAGGUCGCCCGGAUGACU [SSArgB.T]

>  <unit info>
µM

>  <apparent KD of K4 kissing-loop reporter>
0.586

$$$$
>  <sequence code>
AUAUGCUUAGCGGCCGCCACUCCAAUUGGCCGAAAGGCCUGAUACCGAGUGAUGUUCGGUUGGAGGAGGACCGGGCUAGGCGUAU [#2 Exclusion - Tryptophan B Attempt #1 (HarryS)]

>  <unit info>
µM

>  <apparent KD of K4 kissing-loop reporter>
0.168

$$$$
>  <sequence code>
CAAACGGGUUGGCUUGGAGACUGCAGACGCAAGGAUAUCGCGAAGACGAGAAGGUGCGGGCCUGGUAGUGAUGUUACAGUUUGGU [theeternabot_sameState_KL_FMN_A_21]

>  <unit info>
µM

>  <apparent KD of K4 kissing-loop reporter>
0.358

$$$$
>  <sequence code>
UAUGAAGGUGGAGGAUAUUGAUUGAAUCUUGGUCAGGAGUGAUGUUCCGGGAAGCCUUGGAUUCAUCGAGAAGGCCAAGGAUAGU [Extra 3]

>  <unit info>
µM

>  <apparent KD of K4 kissing-loop reporter>
0.123

$$$$
>  <sequence code>
AAAAUAAUCCAGUGAUGUUGGUGUCCAGAUACCAGCGACGAAAGUCGCCCUUGGCAGCUGUGGACGUACAAAAUAAGUACGUCCU

>  <unit info>
µM

>  <apparent KD of K4 kissing-loop reporter>
0.476

$$$$
>  <sequence code>
CGGUACGUCGCAGGAUAUGUAAAUGUAAGUGAUGUUUACAUACCAUGCUGGCGAAAGCCAGCAUGGACAGAAGGGCGACGUACCG

>  <unit info>
µM

>  <apparent KD of K4 kissing-loop reporter>
0.111

$$$$
>  <sequence code>
AAGUGUGUGGCGGCCGCCACUAGAAUCCAGUGAUGUUGGAGUUAUCAGAUAAAUGAUAAUCAACAUAGGACCGGGCCAUAUAGAA [Same State - Tryptophan B (Freestyle 5)]

>  <unit info>
µM

>  <apparent KD of K4 kissing-loop reporter>
0.703

$$$$

Recorded values, source the supplement of paper PMC9170038.
